- PROTOCOL_DETAILS: anti-His antibody binders, primary screen, artefact control for SMM control protein annotation, biochemical, small-molecule microarray, 635 nm fluorescence (AID 1128);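 further: score merges feature fluorescence with signal-to-noise for each printed compound spot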
- TEST_CONTEXT: anti-His Alexa647 antibody binding, higher = more signal
Exercise: for every item that follows, state its recorded composite z-score.
One number for each entry.

Here is how some compounds turned out for composite z-score.
INSERT INTO results (compound, test_readout, recorded_result) VALUES
  ('C=C(/C(=C/C[C@@H](OC(=O)c1ccncc1)c1ccc(CO)o1)c1cnc2ccccc2c1)C(C)C', 'composite z-score', 1.73),
  ('C=CCNC(=O)[C@H]1[C@@H]2C(=O)O[C@@H](c3ccccc3)[C@@H](c3ccccc3)N2[C@@H](c2ccccc2OCCO)[C@]12C(=O)N(C(=O)OCCOC)c1ccc(C#CCC(C(=O)OC)C(=O)OC)cc12', 'composite z-score', 2.1),
  ('O=C1C2C=CC(C(O)Cc3ccccc3)N(Nc3ccc([N+](=O)[O-])cc3)C2C(=O)N1c1ccccc1 (centres undefined)', 'composite z-score', 1.46);

Please look at the items below and tell me composite z-score for each one, in order.
1. C=CCc1cccc([C@@H]2[C@@H](C)CC[C@H]3C(=O)N4[C@H](c5cccc(CC=C)c5)[C@@H](C)CC[C@H]4C(=O)N23)c1
2. CCN1C(C)=C(C(=O)OC)[C@@H](c2ccccc2)N2C(=O)[C@@]3(C(=O)OC)O[C@@]12[C@@H]1C(=O)N(c2ccccc2)C(=O)[C@@H]13
3. C=C(COC)C(=O)CC[C@H](OC(=O)c1ccccc1-c1ccccc1C(=O)O)c1cccc(OCCO)c1
4. CCOC(=O)C1=CC[C@@H](c2ccccc2)N(S(=O)(=O)c2ccc(C)cc2)[C@H]1C
5. C=C(C(=O)CC[C@H](OC(=O)c1ccccc1-c1ccccc1C(=O)O)c1ccc(CO)o1)C(C)C

Reply |
0.22
1.44
2.49
1.18
2.61

Please look at the items below and tell me composite z-score for each one, in order.
1. CCN1C(C)=C(C(=O)OC)[C@@H](c2ccccc2)N2C(=O)[C@](O)(C(=O)OC)[C@@H](c3ccccc3)C(C(=O)c3ccccc3)=C12
2. COCCCNC(=O)[C@@]1(Sc2ccc(C)cc2)CC(=O)N(Cc2cc(C(F)(F)F)cc(C(F)(F)F)c2)[C@@H]1c1ccc(CO)cc1I
3. CN(C)CCCC[C@@H]1NC(=O)[C@@H]2C[C@H](C(=O)NCCCCCNC(=O)CS)[C@H](c3ccc(O)cc3)N2C1=O
4. O=C1O[C@@H](c2ccccc2)[C@@H](c2ccccc2)N2[C@@H](c3ccc(O)cc3)[C@]3(C(=O)Nc4ccccc43)[C@@H](C(=O)N3CCN(c4ncccn4)CC3)[C@H]12
5. CCC(=O)[C@]12O[C@@]3([C@@H]4C(=O)OCC[C@@H]41)N(CC)C(C)=C(C(=O)OC)[C@@H](c1ccccc1)N3C2=O
6. COc1cc([C@@H]2N[C@H](C(=O)O)Cc3c2[nH]c2ccccc32)cc(OC)c1OC
7. CO[C@H]1COC(=O)[C@H](C)NC(=O)CC=C[C@@H](C)[C@H](NS(=O)(=O)c2ccc(C)cc2)COC(=O)[C@@H](OCc2ccccc2)C=C[C@@H]1C

Reply |
1. 0.0774
2. -0.21
3. 1.12
4. 0.265
5. 1.41
6. 0.386
7. -1.04
